Test system: CNV progression
Test: In vivo choroidal neovascularization (CNV) model
Set-up: species or system Brown-Norway rats
Conditions: 240 h; rat laser-induced CNV, 30 nmol/eye injection on Day 3, CNV area on Day 10 vs vehicle-treated group
Consider the following molecules and their measured inhibition in vivo at 30 nmol/eye readings.

Solved entries:
- substance_smiles: "COCCN(Cc1ccc(-c2cc3nccc(Oc4ccc(NC(=O)NC5CC5)cc4F)c3s2)nc1)C(=O)[C@H](N)C(C)C"
  target_or_test_system: "CNV progression"
  inhibition in vivo at 30 nmol/eye: "≥ 60%"
- substance_smiles: "COCCNCc1ccc(-c2cc3nccc(Oc4ccc(NC(=O)Nc5nc(C)cs5)cc4F)c3s2)nc1"
  target_or_test_system: "CNV progression"
  inhibition in vivo at 30 nmol/eye: "40 to 60%"
- substance_smiles: "COCCNCc1ccc(-c2cc3nccc(Oc4ccc(NC(=O)NC5CCC5)cc4F)c3s2)nc1"
  target_or_test_system: "CNV progression"
  inhibition in vivo at 30 nmol/eye: "40 to 60%"
- substance_smiles: "COCCOCCNCc1ccc(-c2cc3nccc(Oc4ccc(NC(=O)Nc5cc(C)on5)cc4F)c3s2)nc1"
  target_or_test_system: "CNV progression"
  inhibition in vivo at 30 nmol/eye: "40 to 60%"

Prompt: Need inhibition in vivo at 30 nmol/eye, item "COCCOCCOCCNCc1ccc(-c2cc3nccc(Oc4ccc(NC(=O)Nc5cccc(P(C)(C)=O)c5)cc4F)c3s2)nc1"
Completion: 40 to 60%

Prompt: What does the record list as inhibition in vivo at 30 nmol/eye for "COCCN(Cc1cnc(-c2cc3nccc(Oc4ccc(NC(=O)NC5CC5)cc4F)c3s2)n1C)S(C)(=O)=O" ?
Completion: ≥ 60%

Prompt: Sample "COCCOCCOCCOCCNCc1ccc(-c2cc3nccc(Oc4ccc(NC(=O)NC5CC5)cc4F)c3s2)nc1" — what was its inhibition in vivo at 30 nmol/eye?
Completion: ≥ 60%

Prompt: What value of inhibition in vivo at 30 nmol/eye has been reported for the following molecule? "COCCNCc1cnc(-c2cc3nccc(Oc4ccc(NC(=O)NC(C)C)cc4F)c3s2)n1C"
Completion: ≥ 60%

Prompt: For "COCCNCc1ccc(-c2cc3nccc(Oc4ccc(NC(=O)Nc5cccc(S(N)(=O)=O)c5)cc4F)c3s2)nc1" , what is its reported inhibition in vivo at 30 nmol/eye?
Completion: ≥ 60%

Prompt: Name the recorded inhibition in vivo at 30 nmol/eye for "COCCN(Cc1ccc(-c2cc3nccc(Oc4ccc(NC(=O)Nc5cccc(S(C)(=O)=O)c5)cc4F)c3s2)nc1)C(C)=O" .
Completion: ≥ 60%

Prompt: Which inhibition in vivo at 30 nmol/eye is reported for this molecule? "COCCN(Cc1ccc(-c2cc3nccc(Oc4ccc(NC(=O)Nc5cccc(C(N)=O)c5)cc4F)c3s2)nc1)C(=O)OC"
Completion: 40 to 60%

Prompt: Bench note: what inhibition in vivo at 30 nmol/eye did "COCCNCc1cnc(-c2cc3nccc(Oc4ccc(NC(=O)Nc5ccc(F)cc5F)cc4F)c3s2)n1C" show?
Completion: 40 to 60%

Prompt: Entry "O=C(Nc1ccc(Oc2ccnc3cc(-c4ccc(CN5CCCC5=O)cn4)sc23)c(F)c1)NC1CC1" : reported inhibition in vivo at 30 nmol/eye = ?
Completion: ≥ 60%

Prompt: Consider the molecule "N[C@@H](CCCCNCc1ccc(-c2cc3nccc(Oc4ccc(NC(=O)NC5CC5)cc4F)c3s2)nc1)C(=O)O" and give its measured inhibition in vivo at 30 nmol/eye.
Completion: 40 to 60%
